Reference for the values: paper PMC4149375

Assay: Cytotoxicity against mammalian cells, MTT assay
Assay type: cell-based, murine
Details: mouse, NCTC clone 929 murine conjunctive cells, NCTC clone 929, 48 h at 37°C, highest concentration 200 µM, read-out: Cytotoxicity CC50 (C.I.95%)
Measured Endpoint: CC50 at 48 h (µM)
// return numeric value only (unit: µM, not printed)

# query: CC50 at 48 h of entry CCCCCCCCCCCCCCCCOP(=O)([O-])OCC[N+](C)(C)C [miltefosine, reference compound]
122

----------
Tested on: NCTC clone 929 murine conjunctive cells
Test: Cytotoxicity against mammalian cells, MTT assay
Type: cell-based
Settings: NCTC clone 929, 48 h at 37°C, highest concentration 200 µM, read-out: Cytotoxicity CC50 (C.I.95%)
Response field label: string, one of criterion met (CC50 strictly below 80 µM) or criterion not met.

Examples from the recorded data:
> print(dat)
                                   compound              group
1      O=C1C(O)=C(CSc2ccccc2)C(=O)c2ccccc21  criterion not met
2  O=C1C(O)=C(C(Sc2ccc([N+](=O)[O-])cc2)c2ccccc2)C(=O)c2ccccc21 (stereo not shown)      criterion met

Say whether its CC50 is strictly beneath 80 µM. Entry: O=C1C(O)=C(C(Sc2ccccc2)c2ccc([N+](=O)[O-])cc2)C(=O)c2ccccc21 (stereo not shown)
criterion not met

Repeat with CCCSC(C1=C(O)C(=O)c2ccccc2C1=O)c1ccccc1 (stereo not shown)
criterion not met

Next record, please: `CCCSCC1=C(O)C(=O)c2ccccc2C1=O`
criterion not met

Try this compound too: `Cc1ccccc1SCC1=C(O)C(=O)c2ccccc2C1=O`
criterion not met

Try the compound `Cc1ccc(SCC2=C(O)C(=O)c3ccccc3C2=O)cc1`
criterion not met

Then `O=C1C(O)=C(CSc2ccc([N+](=O)[O-])cc2)C(=O)c2ccccc21` ?
criterion not met

Same question, Cc1ccc(SC(C2=C(O)C(=O)c3ccccc3C2=O)c2ccc([N+](=O)[O-])cc2)cc1 (stereo not shown) this time
criterion met

----------
Tested on: intracellular L. (L.) infantum amastigotes
Assay: Activity against intracellular amastigotes in infected macrophages, Giemsa counting
Format: cell-based, Leishmania (L.) infantum
Settings: Leishmania infantum, Peritoneal macrophage, in Mus musculus; BALB/c peritoneal macrophages infected with amastigotes, 120 h at 37°C; na = not active; read-out: Amastigotes IC50 (C.I.95%)
Experimental: L. (L.) infantum (MHOM/BR/1972/LD) promastigotes were maintained in M-199 medium supplemented with 10% fetal bovine serum (FBS) and 0.25% hemin at 24°C. L. (L.) infantum was maintained in golden hamsters for up to approximately 60–70 days post-infection. […] The activity against intracellular L. (L.) infantum amastigotes was determined in infected macrophages. […] The number of amastigotes was determined in 400 macrophages from the drug-treated and control wells [15]. […]
Measured Endpoint: IC50 (µM)
Enter your answer as a number in µM; do not include the unit.

IC50 of CCCCCCCCCCCCCCCCOP(=O)([O-])OCC[N+](C)(C)C [miltefosine, reference compound] on intracellular L. (L.) infantum amastigotes?
17.8
